- System: A498
- ASSAY OVERVIEW: GI50, drug alone; higher = less potent
- SETUP CONDITIONS: treatment: drug alone; 5 days
Field 'label' (enum: met / not met). Set to met when GI50, drug alone is strictly under 4 µM; else not met.

Example results:
MOLECULE	LABEL CLASS
OCc1ccc(-c2ccc(-c3ccc(CO)s3)o2)s1	not met
CCCS(=O)(=O)Nc1ccc(F)c(C(=O)c2c[nH]c3ncc(-c4ccc(Cl)cc4)cc23)c1F	not met
Br.Cc1ccc(C(=O)Cn2c3c(sc2=N)CCCC3)cc1	not met
O=C(Nc1c[nH]nc1-c1nc2cc(CN3CCOCC3)ccc2[nH]1)NC1CC1	met
CNC(=O)c1ccc(C)c(-n2c(C)cc(OCc3ccc(F)cc3F)c(Br)c2=O)c1	not met
CCn1nnc2c(N3CCOCC3)nc(-c3ccc(NC(=O)Nc4ccc(C(=O)N5CCN(C)CC5)cc4)cc3)nc21	met
Cn1cc(-c2ccc3ncc(Cc4ccc5ncccc5c4)n3n2)cn1	met

Input S=C(NCc1ccc2c(c1)OCO2)N1CCN(c2ncnc3c2oc2ccccc23)CC1 [Amuvatinib (MP-470)_R2] ; condition: GI50, drug alone strictly below 4 µM. Does it hold? not met
